- target under test: UniProtKB Q9NWZ3
- Sequence (Q9NWZ3 whole entry): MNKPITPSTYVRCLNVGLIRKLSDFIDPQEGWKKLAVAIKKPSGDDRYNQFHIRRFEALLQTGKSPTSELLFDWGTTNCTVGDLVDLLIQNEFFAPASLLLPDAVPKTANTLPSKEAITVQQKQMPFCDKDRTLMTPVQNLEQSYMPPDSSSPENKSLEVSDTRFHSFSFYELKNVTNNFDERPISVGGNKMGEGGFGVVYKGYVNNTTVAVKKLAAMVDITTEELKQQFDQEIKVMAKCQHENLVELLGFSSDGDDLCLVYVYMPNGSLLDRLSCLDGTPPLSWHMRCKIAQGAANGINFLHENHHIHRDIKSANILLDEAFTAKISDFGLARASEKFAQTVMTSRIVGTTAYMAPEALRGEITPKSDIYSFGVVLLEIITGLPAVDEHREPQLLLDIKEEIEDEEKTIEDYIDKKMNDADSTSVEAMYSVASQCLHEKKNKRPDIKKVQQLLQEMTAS
- test name: IRAK-4 ELISA, PBMC degradation
- Type: cell-based
- Design: endogenous in cells; host or cells: PBMC
- condition description: treated overnight
Give measured DC50 for each item. Keep answers brief.

Would you kindly share the measured DC50 for O=C1CCC(N2Cc3cc(N4CCC(CN5CCC(N6Cc7cc(NC(=O)c8cnn9cccnc89)c(OC8CC8)cc7C6=O)CC5)CC4)ccc3C2=O)C(=O)N1 (stereo not shown) ?
< 1 nM

Would you kindly share the measured DC50 for CC(C)Oc1cc2c(cc1NC(=O)c1cnn3cccnc13)CN([C@H]1CC[C@H](N3CCN(c4ccc5c(c4)CN(C4CCC(=O)NC4=O)C5=O)CC3)CC1)C2=O (stereo partly shown) ?
< 1 nM

Would you kindly share the measured DC50 for CC(C)Oc1cc2nn(C3CCN(CC4(F)CN(c5ccc(C(=O)NC6CCC(=O)NC6=O)c(F)c5)C4)CC3)cc2cc1NC(=O)c1cnn2cccnc12 (stereo not shown) ?
1 to 5 nM

Would you kindly share the measured DC50 for CC(C)Oc1nc2c(cc1NC(=O)c1cnn3cccnc13)CN(C1CCN(CCc3ccc4c(c3)CN(C3CCC(=O)NC3=O)C4=O)CC1)C2=O (stereo not shown) ?
1 to 5 nM

Would you kindly share the measured DC50 for CC(C)Oc1nc2nn(C3CCN(CC4(F)CN(c5ccc6c(c5)C(=O)N(C5CCC(=O)NC5=O)C6=O)C4)CC3)cc2cc1NC(=O)c1cnn2cccnc12 (stereo not shown) ?
5 to 10 nM

Would you kindly share the measured DC50 for O=C1CCC(N2C(=O)c3ccc(N4CCC(F)(CN5CCC(N6Cc7cc(NC(=O)c8cnn9cccnc89)c(OCC8CC8)cc7C6=O)CC5)CC4)cc3C2=O)C(=O)N1 (stereo not shown) ?
< 1 nM

Would you kindly share the measured DC50 for CC(C)Oc1cc2c(cc1NC(=O)c1cnn3cccnc13)CN(C1CCN(CC3CCN(c4ccc5c(c4)CN(C4CCC(=O)NC4=O)C5=O)CC3)CC1)C2=O (stereo not shown) ?
< 1 nM

Would you kindly share the measured DC50 for COc1cc2nn([C@H]3CC[C@H](N(C)C4CCN(c5ccc6c(c5)C(=O)N(C5CCC(=O)NC5=O)C6=O)CC4)CC3)cc2cc1NC(=O)c1cnn2cccnc12 (stereo partly shown) ?
< 1 nM

Would you kindly share the measured DC50 for `O=C1CC[C@@H](N2C(=O)c3ccc(N4CC(F)(CN5CCC(n6cc7cc(NC(=O)c8cnn9cccnc89)c(OCC8CC8)cc7n6)CC5)C4)cc3C2=O)C(=O)N1` ?
1 to 5 nM

Would you kindly share the measured DC50 for CC(C)Oc1cc2nn(C3CCN(CCN4CCN(c5ccc6c(c5)C(=O)N(C5CCC(=O)NC5=O)C6=O)CC4)CC3)cc2cc1NC(=O)c1cnn2cccnc12 (stereo not shown) ?
< 1 nM
